// molecules with IC50 on NUAK1 (Homo sapiens), multi-source literature
Sequence (O60285 whole entry): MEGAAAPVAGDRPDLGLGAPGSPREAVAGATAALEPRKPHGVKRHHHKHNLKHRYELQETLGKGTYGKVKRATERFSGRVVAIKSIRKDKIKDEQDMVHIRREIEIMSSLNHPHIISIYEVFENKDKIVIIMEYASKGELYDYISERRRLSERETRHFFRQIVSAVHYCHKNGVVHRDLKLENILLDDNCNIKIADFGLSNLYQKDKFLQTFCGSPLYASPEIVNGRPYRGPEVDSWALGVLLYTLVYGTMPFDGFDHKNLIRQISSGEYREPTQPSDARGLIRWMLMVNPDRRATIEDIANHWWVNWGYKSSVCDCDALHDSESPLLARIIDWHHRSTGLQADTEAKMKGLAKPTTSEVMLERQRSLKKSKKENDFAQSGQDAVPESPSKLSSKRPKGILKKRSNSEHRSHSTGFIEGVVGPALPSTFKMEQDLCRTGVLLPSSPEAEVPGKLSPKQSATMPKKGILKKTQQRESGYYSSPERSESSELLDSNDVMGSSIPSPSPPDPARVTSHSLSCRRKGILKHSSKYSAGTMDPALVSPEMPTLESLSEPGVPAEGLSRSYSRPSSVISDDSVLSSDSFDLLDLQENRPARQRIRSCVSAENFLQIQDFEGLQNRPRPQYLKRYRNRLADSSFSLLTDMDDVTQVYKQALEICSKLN

O=C(O)c1cc2c(cc1Cl)-c1[nH]ncc1N=C(c1c(F)cccc1F)N2: 100 to 1000 nM

Q: Hi! What's the reported IC50 for O=C1NCc2cccc(Nc3nc(Nc4ccc(N5CCC6(CCNCC6)CC5)cc4OC(F)F)ncc3Cl)c21 on NUAK1 (Homo sapiens)?
Ans: 11 to 100 nM

Q: Requested read-out IC50, target or system NUAK1 (Homo sapiens), entry COc1c(Nc2ncc(Cl)c(Nc3cccc4c3C(=O)NC4)n2)ccc(N2CCN3CCCC3C2)c1F (centres unmarked)
Ans: 11 to 100 nM

Q: Lab note: need IC50 for O=C1NCc2cccc(Nc3nc(Nc4ccc(N5[C@@H]6CC[C@H]5CNC6)cc4OC(F)F)ncc3Cl)c21 on NUAK1 (Homo sapiens), anyone have it?
Ans: 0.1 to 10 nM

Q: Kindly state the measured IC50 obtained for Cc1ccc2c(c1)-c1[nH]ncc1NC(c1c(Cl)ccc(Br)c1F)=N2 with NUAK1 (Homo sapiens).
Ans: 10 to 100 nM

Q: Test system NUAK1 (Homo sapiens); read-out IC50; what value for Fc1cccc(F)c1C1=Nc2ccncc2-c2[nH]ncc2N1 ?
Ans: 10 to 100 nM

Q: Given the entry CN1Cc2cnc(Nc3ccn(C4CCNCC4)n3)cc2N(C)c2ccccc21 , what IC50 was observed with NUAK1 (Homo sapiens)?
Ans: 1300 nM

Q: What reported IC50 corresponds to Cc1ccc2c(c1)-c1[nH]ncc1N=C(c1c(F)cc(NCCF)cc1F)N2 on NUAK1 (Homo sapiens)?
Ans: 10 to 100 nM

Q: Please state recorded IC50 (tested on NUAK1 (Homo sapiens)) of CCc1ccnn1-c1ccc(Nc2cn(-c3c(F)cccc3F)nc2C(N)=O)cc1
Ans: 10 to 100 nM

Q: What value of IC50 on NUAK1 (Homo sapiens) does NC(=O)c1ccc2c(c1)-c1[nH]ncc1NC(c1c(F)cccc1F)=N2 have?
Ans: 10 to 100 nM

Q: Request body: readout IC50, system NUAK1 (Homo sapiens), query C[C@H]1CN(c2ccc(Nc3ncc(C(F)(F)F)c(Nc4cccc5c4C(=O)NC5)n3)c(OC(F)F)c2)CCN1 . Return the value.
Ans: 11 to 100 nM

Q: Enter reported IC50 observed with NUAK1 (Homo sapiens) for CN(C)C1CCN(C(=O)c2ccc(Nc3cn(-c4c(Cl)cccc4Cl)nc3C(N)=O)cc2)CC1
Ans: 100 to 1000 nM

Q: Could you share what IC50 was measured for NC(=O)c1nn(-c2c(F)cccc2F)cc1Nc1ccccn1 , tested on NUAK1 (Homo sapiens)?
Ans: 100 to 1000 nM

Q: Return IC50 measured with NUAK1 (Homo sapiens) given this molecule: NC(=O)c1nn(-c2c(Cl)cccc2Cl)cc1Nc1ccc(OC2CCNCC2)cc1
Ans: 100 to 1000 nM

Q: Reported IC50 for NUAK1 (Homo sapiens), given O=C1NCc2cccc(Nc3nc(Nc4ccc(N5CCC6(CCNCC6)CC5)cc4OC(F)F)ncc3C(F)(F)F)c21 ?
Ans: 11 to 100 nM

Q: # value lookup — system NUAK1 (Homo sapiens), readout IC50, item Cn1nc(C(F)(F)F)nc1-c1ccc(Nc2cn(-c3c(F)cccc3F)nc2C(N)=O)cc1
Ans: 100 to 1000 nM

Q: Enter reported IC50 observed with NUAK1 (Homo sapiens) for NC(=O)c1nn(-c2c(F)cccc2C(F)(F)F)cc1Nc1ccc(C(=O)N2CC3(CCC3)C2)cc1
Ans: 100 to 1000 nM

Q: Value wanted: IC50 (NUAK1 (Homo sapiens)) of entry COc1c(Nc2ncc(Cl)c(Nc3cccc4c3C(=O)NC4)n2)ccc(N2C[C@H]3CN(C)C[C@H]3C2)c1F
Ans: 11 to 100 nM

Q: // fetch NUAK1 (Homo sapiens) IC50 for Fc1cccc(Cl)c1C1=Nc2cnc(Cl)cc2-c2n[nH]cc2N1
Ans: 10 to 100 nM

Q: For NUAK1 (Homo sapiens), provide IC50 of CC(=O)N1CC(n2cc(C(F)(F)F)nc2-c2ccc(Nc3cn(-c4c(Cl)cccc4Cl)nc3C(N)=O)cc2)C1 please.
Ans: 100 to 1000 nM

Q: I'm curious: which IC50 was measured for COc1cc2c(cc1Nc1ncc(C(F)(F)F)c(Nc3cccc4c3C(=O)NC4)n1)CCNCC2 tested on NUAK1 (Homo sapiens)?
Ans: 101 to 1000 nM

Q: Record lookup: for NUAK1 (Homo sapiens), what IC50 belongs to O=C(NCCF)c1cc2c(cc1F)-c1n[nH]cc1N=C(c1c(F)cccc1F)N2 ?
Ans: 10 to 100 nM

Q: Tell me reported IC50 for O=C(NCC(F)(F)F)c1cc2c(cc1Cl)-c1n[nH]cc1N=C(c1c(F)cccc1F)N2 , tested with NUAK1 (Homo sapiens).
Ans: 10 to 100 nM

Q: GET /values?readout=IC50&system=NUAK1 (Homo sapiens)&item= Fc1ccc(-c2ccc3c(c2)N=C(c2c(Cl)cccc2Cl)Nc2c[nH]nc2-3)cc1
Ans: 10 to 100 nM

Q: Hello, I am looking for reported IC50 with NUAK1 (Homo sapiens) for O=C1NCc2cccc(Nc3nc(Nc4ccc(N5CCCNCC5)cc4OC(F)F)ncc3C(F)(F)F)c21 . Could you help?
Ans: 11 to 100 nM

Q: What value of IC50 on NUAK1 (Homo sapiens) does CSc1n[nH]c2c1NC(c1c(F)cccc1F)=Nc1ccccc1-2 have?
Ans: 100 to 1000 nM
